- Assay target: APOL1 (Homo sapiens, UniProt O14791)
- Assay details: Multi-Tox Assay (MultiTox-Fluor Multiplex Cytotoxicity Assay in tet-inducible APOL1 T-REx-HEK293 cells; Table 46 does not say which APOL1 variant G0/G1/G2)
- Measurement parameters: IP50 = IC50 for cell proliferation, APOL1 variant not given
Test readout: IC50

Please review the following examples before continuing.
{"Compound": "C[C@H]1C[C@@]2(C[C@@H](c3cn(CCCO)nn3)N1)OCC(F)(F)c1cc(Cl)sc12 [Compound 359]", "IC50": "< 50 nM"}
{"Compound": "C[C@H]1C[C@@]2(C[C@@H](c3cn(CC4(O)CC4)nn3)N1)OC[C@@H](O)c1cc(Cl)sc12 [Compound 233]", "IC50": "50 to 500 nM"}
{"Compound": "C[C@H]1C[C@@]2(C[C@@H](c3cn(CC4(CO)CCOCC4)nn3)N1)OC[C@@H](O)c1cc(Cl)sc12 [Compound 240]", "IC50": "50 to 500 nM"}
{"Compound": "C[C@H]1C[C@@]2(C[C@@H](c3cccc(C(N)=O)c3)N1)OCCc1cc(Cl)sc12 (racemic) [Compound 109]", "IC50": "< 50 nM"}
{"Compound": "Cc1cc(Cn2cc([C@@H]3C[C@]4(C[C@H](C)N3)OCC(F)(F)c3cc(Cl)sc34)nn2)ccn1 [Compound 336]", "IC50": "< 50 nM"}
{"Compound": "COc1ccc(Cn2cc([C@@H]3C[C@]4(C[C@H](C)N3)OCC(F)(F)c3cc(Cl)sc34)nn2)cc1 [Compound 335]", "IC50": "50 to 500 nM"}

// next item, IC50 requested
[ask] Fill blank: measured IC50 of the compound C[C@H]1C[C@@]2(C[C@@H](c3cn(CCC#N)nn3)N1)OC[C@@H](O)c1cc(Cl)sc12 [Compound 286] is ____.
[reply] < 50 nM

----------
- Assay target: APOL1 (Homo sapiens)
- Assay details: Multi-Tox Assay (MultiTox-Fluor Multiplex Cytotoxicity Assay in tet-inducible APOL1 T-REx-HEK293 cells; Table 46 does not say which APOL1 variant G0/G1/G2)
- Format: cell-based
- Measurement parameters: APOL1 variant not given
Recorded Multi-Tox Assay Max Activity (%) by entry
# number only, unit % dropped from output

{"Compound": "C[C@H]1C[C@@]2(C[C@@H](c3cn(Cc4ccc(O)cc4)nn3)N1)OC[C@@H](O)c1cc(Cl)sc12 [Compound 259]", "Assay target": "APOL1 (Homo sapiens)", "Test readout": "Multi-Tox Assay Max Activity (%)", "Reported measurement": 100.0}
{"Compound": "C[C@H]1C[C@@]2(C[C@@H](c3cn(CC4CCCCO4)nn3)N1)OC[C@@H](O)c1cc(Cl)sc12 (stereo partly shown) [Compound 227]", "Assay target": "APOL1 (Homo sapiens)", "Test readout": "Multi-Tox Assay Max Activity (%)", "Reported measurement": 100.0}
{"Compound": "C[C@H]1C[C@@]2(C[C@@H](c3cn(Cc4ccccc4S(C)(=O)=O)nn3)N1)OC[C@@H](O)c1cc(Cl)sc12 [Compound 231]", "Assay target": "APOL1 (Homo sapiens)", "Test readout": "Multi-Tox Assay Max Activity (%)", "Reported measurement": 95.0}
{"Compound": "C[C@H]1C[C@@]2(C[C@@H](c3ccc[nH]c3=O)N1)OCCc1cc(Cl)sc12 (racemic) [Compound 121]", "Assay target": "APOL1 (Homo sapiens)", "Test readout": "Multi-Tox Assay Max Activity (%)", "Reported measurement": 99.0}
{"Compound": "C[C@H]1C[C@@]2(C[C@@H](c3cn(Cc4cccc(CO)c4)nn3)N1)OCC(F)(F)c1cc(Cl)sc12 [Compound 313]", "Assay target": "APOL1 (Homo sapiens)", "Test readout": "Multi-Tox Assay Max Activity (%)", "Reported measurement": 98.0}

// next item, Multi-Tox Assay Max Activity (%) requested
[ask] Fill blank: measured Multi-Tox Assay Max Activity (%) of the compound C[C@H]1C[C@@]2(C[C@@H](c3cn(CCO)nn3)N1)OC[C@@H](O)c1cc(Cl)sc12 [Compound 244] is ____.
[reply] 100.0

----------
- Assay target: APOL1 G1 (Homo sapiens, UniProt O14791, I384M/S342G)
- Assay details: Trypanosoma brucei brucei Lysis Assay Using APOL1 Recombinant Protein (AlamarBlue viability readout)
- Format: cell-based
- Measurement parameters: Trypanosome Assay; IP50 = IC50 for cell proliferation; read-out: Trypanosome Assay IP50
Test readout: IC50

{"Compound": "C[C@H]1C[C@@]2(C[C@@H](c3cnc(NC(C)(C)CO)nc3)N1)OCCc1cc(Cl)sc12 (racemic)", "Test readout": "IC50", "Reported measurement": "50 to 500 nM"}
{"Compound": "C[C@@H]1C[C@]2(C[C@H](C)N1)OCC(O)c1cc(Cl)sc12 (mixture of isomers)", "Test readout": "IC50", "Reported measurement": "50 to 500 nM"}
{"Compound": "COCCOCCOc1ccc([C@@H]2C[C@]3(C[C@H](C)N2)OCCc2cc(Cl)sc23)cc1 (racemic)", "Test readout": "IC50", "Reported measurement": "< 50 nM"}

// next item, IC50 requested
[ask] Field: IC50 (APOL1 G1 (Homo sapiens, UniProt O14791, I384M/S342G)). Entry: CC1CC2(CC(c3cnn(-c4cccnc4)c3)N1)OCCc1cc(Cl)sc12 (stereo not shown)
[reply] < 50 nM

----------
- Assay target: APOL1 G1 (Homo sapiens, UniProt O14791, I384M/S342G)
- Assay details: Trypanosoma brucei brucei Lysis Assay Using APOL1 Recombinant Protein (AlamarBlue viability readout)
- Type: cell-based
- Measurement parameters: Trypanosome Assay; read-out: Trypanosome Assay Max Activity (%)
Recorded Emax by entry
# number only, unit % dropped from output

Please review the following examples before continuing.
{"Molecule": "C[C@H]1C[C@@]2(C[C@@H](c3c[nH]nn3)N1)OCCc1cc(Cl)sc12 (racemic)", "Assay target": "APOL1 G1 (Homo sapiens, UniProt O14791, I384M/S342G)", "Emax, %": 118}
{"Molecule": "CNC(=O)c1cccc(C2CC3(CC(C)N2)OCCc2cc(Cl)sc23)c1 (stereo not shown)", "Assay target": "APOL1 G1 (Homo sapiens, UniProt O14791, I384M/S342G)", "Emax, %": 112}
{"Molecule": "CC1CC2(CC(c3ccc4[nH]ncc4c3)N1)OCCc1cc(Cl)sc12 (stereo not shown)", "Assay target": "APOL1 G1 (Homo sapiens, UniProt O14791, I384M/S342G)", "Emax, %": 111}

[ask] Fill blank: measured Emax of the molecule CC1CC2(CC(C3CC3(F)F)N1)OCCc1cc(Cl)sc12 (single isomer, unassigned) is ____.
[reply] 101

----------
- Assay target: APOL1 G1 (Homo sapiens, UniProt O14791, I384M/S342G)
- Sequence (O14791 28-398 S342G/I384M): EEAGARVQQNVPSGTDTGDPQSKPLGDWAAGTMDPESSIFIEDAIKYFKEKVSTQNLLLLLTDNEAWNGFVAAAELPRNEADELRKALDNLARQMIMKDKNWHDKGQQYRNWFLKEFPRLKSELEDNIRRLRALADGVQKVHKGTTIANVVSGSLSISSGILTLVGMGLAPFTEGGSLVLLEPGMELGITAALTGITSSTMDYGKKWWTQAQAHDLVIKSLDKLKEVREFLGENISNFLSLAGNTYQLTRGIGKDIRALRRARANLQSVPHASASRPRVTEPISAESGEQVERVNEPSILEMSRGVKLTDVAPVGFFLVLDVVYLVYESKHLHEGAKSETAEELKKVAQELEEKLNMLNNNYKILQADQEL
- Assay details: MultiTox-Fluor Multiplex Cytotoxicity Assay in tet-inducible APOL1 G1 T-REx-HEK293 cells (clone G1 DC3.25)
- Format: cell-based
- Set-up: expressed in transfected cells; host or cells: T-REx HEK293, pAAVS1-Puro-APOL1 G1, clone G1 DC3.25
- Measurement parameters: Multi-Tox Assay; IP50 = IC50 for cell proliferation; APOL1 variant cell line not given
Test readout: IC50

{"Molecule": "C[C@H]1C[C@@]2(C[C@@H](C3(CO)CC3)N1)OCCc1cc(Cl)sc12 [Compound 380]", "Assay target": "APOL1 G1 (Homo sapiens, UniProt O14791, I384M/S342G)", "IC50": "< 50 nM"}
{"Molecule": "C[C@H]1C[C@@]2(C[C@@H](C3(C#N)CC3)N1)OCCc1cc(Cl)sc12 (racemic) [Compound 377]", "Assay target": "APOL1 G1 (Homo sapiens, UniProt O14791, I384M/S342G)", "IC50": "50 to 500 nM"}
{"Molecule": "C[C@H](CO)Cn1cc([C@@H]2C[C@]3(C[C@H](C)N2)OCC(F)(F)c2cc(Cl)sc23)nn1 [Compound 371]", "Assay target": "APOL1 G1 (Homo sapiens, UniProt O14791, I384M/S342G)", "IC50": "< 50 nM"}
{"Molecule": "C[C@H]1C[C@@]2(C[C@@H](c3cn(C)nn3)N1)OC[C@@H](O)c1cc(C(F)(F)F)sc12 [Compound 386]", "Assay target": "APOL1 G1 (Homo sapiens, UniProt O14791, I384M/S342G)", "IC50": "< 50 nM"}

[ask] Fill blank: measured IC50 of the molecule COCC1([C@@H]2C[C@]3(C[C@H](C)N2)OCCc2cc(Cl)sc23)CC1 (racemic) [Compound 376] is ____.
[reply] 50 to 500 nM

[ask] And the next one, Cn1cc(C2CC3(CC(C(F)F)N2)OCCc2cc(Cl)sc23)nn1 (stereo not drawn) [Compound 388] ?
[reply] > 500 nM

[ask] And the next one, CCOC(=O)C1CC1[C@@H]1C[C@]2(C[C@H](C)N1)OCCc1cc(Cl)sc12 (stereo in doubt) [Compound 374] ?
[reply] < 50 nM

[ask] And the next one, Cn1cc([C@@H]2C[C@]3(C[C@H](C4CC4)N2)OC[C@@H](O)c2cc(Cl)sc23)nn1 [Compound 382] ?
[reply] < 50 nM

[ask] And the next one, Cn1cc([C@@H]2C[C@]3(C[C@H](c4ccccc4)N2)OC[C@@H](O)c2cc(Cl)sc23)nn1 [Compound 387] ?
[reply] > 500 nM

Measured values drawn from patent US12421249B2 for this set.
